Experiment: Tissue distribution of 18F imaging agents in rats
Assay type: in vivo, Male Sprague Dawley rats
Details: rat, iv tail vein ~15 μCi, 60 min post injection, ± SEM
QUANTITY MEASURED: Brain, imaging agent distribution at 60 min (% ID/g)

[[record]]
molecule = "CC(C)(C)n1ncc(OCc2cccc(COCCF)c2)c(Cl)c1=O [Example 67A]"
measurement_units = "% ID/g"
value_observed = 0.14

[[record]]
molecule = "CC(C)(C)n1ncc(OCc2ccc(-c3cnc(F)nc3)cc2)c(Cl)c1=O [Example 67L]"
measurement_units = "% ID/g"
value_observed = 0.22

[[record]]
molecule = "Cc1c(OCc2ccc(COCCF)cc2)cnn(C(C)(C)C)c1=O [Example 67I]"
measurement_units = "% ID/g"
value_observed = 0.36

[[record]]
molecule = "CC(C)n1ncc(OCc2ccc(COCCF)cc2)c(Cl)c1=O [Example 67H]"
measurement_units = "% ID/g"
value_observed = 0.43

[[record]]
molecule = "CC(C)(C)n1ncc(OCc2cccc(OCCF)c2)c(Cl)c1=O [Example 67F]"
measurement_units = "% ID/g"
value_observed = 0.38

[[record]]
molecule = "CC(C)(C)n1ncc(OCc2ccc(C(=O)OCCF)cc2)c(Cl)c1=O [Example 67J]"
measurement_units = "% ID/g"
value_observed = 0.43

[[record]]
molecule = "CC(C)(C)n1ncc(OCc2ccc(OCCF)cc2)c(Cl)c1=O [Example 67D]"
measurement_units = "% ID/g"
value_observed = 0.69

[[record]]
molecule = "[2H]C([2H])(OCCF)c1ccc(COc2cnn(C(C)(C)C)c(=O)c2Cl)cc1 [Example 67E]"
measurement_units = "% ID/g"
value_observed = 0.62

[[record]]
molecule = "CC(C)(C)n1ncc(OCc2ccc(C#CCCF)cc2)c(Cl)c1=O [Example 67K]"
measurement_units = "% ID/g"
value_observed = 0.36

